Origin of values: ChEMBL document CHEMBL5038634

Assay: Plasma protein binding in CD-1 mouse assessed as unbound fraction at 2 uM by Equilibrium dialysis method
Type: ADME, cell-free
quantity_kind: fraction unbound at 2 µM
Lab note: jot the number down without any unit.

GET /values?readout=fraction unbound at 2 µM&item= Cc1ccc(Sc2ccc3n[nH]c(=O)n3n2)cc1
0.011

====

Biological target: Palmitoleoyl-protein carboxylesterase NOTUM (Homo sapiens, UniProt Q6P988, C330S)
Assay: Inhibition of human Notum (81 to 451 Cys330Ser) using OPTS as substrate incubated for 40 mins by fluorescence based assay
Response field label: string, one of satisfied (IC50 strictly below 0.03 µM) or not satisfied.

Could you please tell me whether IC50 recorded for Cc1ccc(Sc2ccc3nn(C)c(=O)n3n2)cc1 is less than 0.03 µM?
not satisfied

Here is the next compound: O=c1[nH]nc2ccc(Sc3ccc(F)c(F)c3)nn12
not satisfied

// repeat for O=C1OC(c2cccc(Cl)c2Cl)=N/C1=C/c1cccs1 and report
not satisfied

What about this compound? Cc1cccc(Sc2ccc3n[nH]c(=O)n3n2)c1
satisfied

And the next one, Cc1ccc(/C=C2/N=C(c3cccc(Cl)c3Cl)OC2=O)o1 ?
satisfied

====

Experiment: Apparent permeability in MDCKII-MDR1 cells assessed as compound recovery at 10 uM incubated upto 120 mins by LC-MS/MS analysis
Type: ADME, cell-based, Canis lupus familiaris
Settings: dog, MDCK-MDR1, read-out: Activity
quantity_kind: recovery at 2 h, 10 µM

Returns the measured recovery at 2 h, 10 µM for the input molecule. Input: Cc1ccc(/C=C2\N=C(c3ccc(C)c(C)c3)OC2=O)o1
< 25%

====

Experiment: Apparent permeability from apical to basolateral side in dog MDCKII-MDR1 cells at 10 uM incubated upto 120 mins by LC-MS/MS analysis
Type: ADME, cell-based, Canis lupus familiaris
Conditions: MDCK-MDR1
quantity_kind: Papp A→B at 2 h, 10 µM (×10⁻⁶ cm/s)
The response must be a number in ×10⁻⁶ cm/s with no trailing unit.

Endpoint output: Papp A→B at 2 h, 10 µM of Cc1ccc(Sc2ccc3n[nH]c(=O)n3n2)cc1 . Value?
52

====

Test: Aqueous solubility of the compound at pH 7.4 in pION buffer at 500uM incubated for 18 hrs by spectrophotometry analysis
Assay type: physicochemical
quantity_kind: solubility at 18 h, 500 µM (µg/mL)
Give your result in µg/mL as a bare value.

Report solubility at 18 h, 500 µM for Cc1ccc(/C=C2\N=C(c3ccc(C)c(C)c3)OC2=O)o1 please.
0.31

====

# AUC(0-inf) per record follows
Assay: AUC (infinity) in C57BL/6J mouse at 0.4 mg/kg, iv measured at 0.08 to 24 hrs by LC-MS/MS analysis
Format: ADME, organism-based
Parameters: route intravenous, time upper 24 hrs, time lower 0.08 hrs, dose 0.4 mg/kg
Settings: in vivo
The reply should be a number in ng·h/mL, with the unit left off.

Below, each entry is followed by its recorded AUC(0-inf) result.
structure_smiles	AUC(0-inf) / ng·h/mL
O=c1[nH]nc2ccc(Sc3ccc(Cl)c(Cl)c3)nn12	370
O=c1[nH]nc2ccc(Sc3cccc(OC(F)(F)F)c3)nn12	270
O=c1[nH]nc2ccc(Sc3cccc(Cl)c3)nn12	300

Would you kindly look at the next entry?
Returns the measured AUC(0-inf) for the input compound. Input: Cc1ccc(Sc2ccc3n[nH]c(=O)n3n2)cc1
2350

====

Assay: Intrinsic clearance in mouse liver microsome at 1 uM incubated upto 60 mins in presence of NADPH by LC-MS/MS analysis
Type: ADME
Conditions: liver microsomes, read-out: CLH
Overview of recorded microsomal CLint at 1 µM for various compounds
// return the numeric value with its unit appended

structure_smiles	microsomal CLint at 1 µM
Cc1ccc(Sc2ccc3n[nH]c(=O)n3n2)cc1	21 µL/min/mg

The record that follows has no microsomal CLint at 1 µM shown yet.
Look at this compound and give its reported microsomal CLint at 1 µM. Cc1ccc(/C=C2\N=C(c3ccc(C)c(C)c3)OC2=O)o1
1.9 µL/min/mg

====

Assay: Apparent permeability from basolateral to apical side in dog MDCKII-MDR1 cells at 10 uM incubated upto 120 mins by LC-MS/MS analysis
Format: ADME, cell-based, Canis lupus familiaris
Conditions: MDCK-MDR1
quantity_kind: Papp B→A at 2 h, 10 µM (×10⁻⁶ cm/s)
Record the value in ×10⁻⁶ cm/s, omitting the unit from your answer.

# Papp B→A at 2 h, 10 µM lookup, item Cc1ccc(Sc2ccc3n[nH]c(=O)n3n2)cc1
43

====

Recorded EC50 for the following compounds
Target: Palmitoleoyl-protein carboxylesterase NOTUM (Homo sapiens, UniProt Q6P988, C330S)
Test: Inhibition of Notum (81 to 451 Cys330Ser) in HEK293T cells expressing TCF-LEF assessed as activation of Wnt signaling using WNT3A as substrate incubated for […] by Steady-Glo luciferase assay
Hi! Could you send only the number? It should be in nM, unit omitted.

structure_smiles	EC50, nM
O=c1[nH]nc2ccc(Sc3ccc(F)c(F)c3)nn12	1100
Cc1ccccc1Sc1ccc2n[nH]c(=O)n2n1	300
O=c1[nH]nc2ccc(Sc3cccc(OC(F)(F)F)c3)nn12	34
Cc1cccc(Sc2ccc3n[nH]c(=O)n3n2)c1	240
Cc1ccc(Sc2ccc3n[nH]c(=O)n3n2)cc1C	130

# EC50 lookup, item CCOc1cccc(Sc2ccc3n[nH]c(=O)n3n2)c1
150

Record: O=c1[nH]nc2ccc(Sc3ccc(F)cc3)nn12
540

====

Assay: Volume of distribution at steady state in C57BL/6J mouse at 0.4 mg/kg, iv measured at 0.08 to 24 hrs by LC-MS/MS analysis
Format: ADME, organism-based
Conditions: in vivo, time 0.08-24 hrs, read-out: Vdss
quantity_kind: Vd (L/kg)
Quick reminder: number only, in L/kg, skip the unit.

See these solved cases before continuing.
structure_smiles	quantity_kind	unit_annotation	reported
O=c1[nH]nc2ccc(Sc3cccc(OC(F)(F)F)c3)nn12	Vd	L/kg	0.2
Cc1ccc(Sc2ccc3n[nH]c(=O)n3n2)cc1	Vd	L/kg	0.1
O=c1[nH]nc2ccc(Sc3cccc(Cl)c3)nn12	Vd	L/kg	0.3

Suppose we examine the molecule O=c1[nH]nc2ccc(Sc3ccc(Cl)c(Cl)c3)nn12 ; what Vd value has been reported?
0.7

====

// values below are reported clearance
Assay: Clearance in C57BL/6J mouse at 0.4 mg/kg, iv measured at 0.08 to 24 hrs by LC-MS/MS analysis
Assay type: ADME, organism-based
Details: in vivo, time 0.08-24 hrs
Give the number; mL/min/kg is assumed, so skip it.

structure_smiles	clearance / mL/min/kg
O=c1[nH]nc2ccc(Sc3cccc(OC(F)(F)F)c3)nn12	24.8
Cc1ccc(Sc2ccc3n[nH]c(=O)n3n2)cc1	2.8
O=c1[nH]nc2ccc(Sc3ccc(Cl)c(Cl)c3)nn12	17.8

Could you now consider this next molecule?
Consider the molecule O=c1[nH]nc2ccc(Sc3cccc(Cl)c3)nn12 and give its measured clearance.
22.2

====

Experiment: C0 in C57BL/6J mouse at 0.4 mg/kg, iv measured at 0.08 to 24 hrs by LC-MS/MS analysis
Type: ADME, organism-based
Settings: in vivo, time 0.08-24 hrs
Each entry below carries its recorded C0.
Provide the reading as a plain figure in ng/mL.

structure_smiles	C0, ng/mL
O=c1[nH]nc2ccc(Sc3cccc(OC(F)(F)F)c3)nn12	1900
O=c1[nH]nc2ccc(Sc3cccc(Cl)c3)nn12	1750
Cc1ccc(Sc2ccc3n[nH]c(=O)n3n2)cc1	2620

API: the following record is the query input.
Param item = O=c1[nH]nc2ccc(Sc3ccc(Cl)c(Cl)c3)nn12 ; retrieve measured C0.
1580

====

Biological target: Palmitoleoyl-protein carboxylesterase NOTUM (Homo sapiens, UniProt Q6P988, C330S)
Assay: Inhibition of human Notum (81 to 451 Cys330Ser) using OPTS as substrate incubated for 40 mins by fluorescence based assay
quantity_kind: pIC50
By convention, pIC50 is the negative base-10 log of a molar concentration.

Worked set:
structure_smiles	system	pIC50
O=c1[nH]nc2ccc(Sc3cccc(C(F)(F)F)c3)nn12	Palmitoleoyl-protein carboxylesterase NOTUM (Homo sapiens, UniProt Q6P988, C330S)	7.77
Cc1ccnc(Sc2ccc3n[nH]c(=O)n3n2)c1	Palmitoleoyl-protein carboxylesterase NOTUM (Homo sapiens, UniProt Q6P988, C330S)	5.57
COC(=O)CCC(=O)N1CCc2ccccc21	Palmitoleoyl-protein carboxylesterase NOTUM (Homo sapiens, UniProt Q6P988, C330S)	7.05
O=c1[nH]nc2ccc(Sc3ccc(Cl)cc3Cl)nn12	Palmitoleoyl-protein carboxylesterase NOTUM (Homo sapiens, UniProt Q6P988, C330S)	7.70

Notebook entry, Palmitoleoyl-protein carboxylesterase NOTUM (Homo sapiens, UniProt Q6P988, C330S) assay: pIC50 of Cc1ccc(C2=N/C(=C/c3cccs3)C(=O)O2)cc1C = ?
7.62

Same question for O=C1OC(c2ccc(Cl)cc2Cl)=N/C1=C/c1ccco1 please.
7.32

Same again, this time with Cc1ccc(Sc2ccc3n[nH]c(=O)n3n2)cc1C
8.15

Now consider Cc1ccc(Sc2ccc3n[nH]c(=O)n3n2)cc1 and answer again.
7.57

Then this molecule: Cc1ccc(Nc2ccc3n[nH]c(=O)n3n2)cc1
6.16

Could you do the same for Cc1ccc(N(C)c2ccc3n[nH]c(=O)n3n2)cc1 , please?
6.00

Further, for Cc1ccc(Sc2cc(C)c3n[nH]c(=O)n3n2)cc1 ?
7.15
